targetSystem: human PD-1 (Jurkat-PD-1 cells) / PE-labeled human PD-L1-Ig (Homo sapiens, UniProt Q15116)
Construct: expressed in transfected cells; host or cells: Jurkat cell line over-expressing human PD-1
Sequence (Q15116 25-288): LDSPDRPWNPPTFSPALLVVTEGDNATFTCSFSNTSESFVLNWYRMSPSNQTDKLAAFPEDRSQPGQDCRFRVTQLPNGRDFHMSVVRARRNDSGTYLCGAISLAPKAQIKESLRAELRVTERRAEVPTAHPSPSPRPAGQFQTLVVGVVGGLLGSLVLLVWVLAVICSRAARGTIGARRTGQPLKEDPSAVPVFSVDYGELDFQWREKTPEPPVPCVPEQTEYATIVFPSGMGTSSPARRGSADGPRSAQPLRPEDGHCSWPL
testDescription: Jurkat-PD-1 Cell Binding High-Content Screening Assay (CBA); Jurkat hPD1-PDL1 assay
conditionInfo: Jurkat cell line over-expressing human PD-1; PE-labeled PD-L1-Ig 20 nM final; compound incubated 2 hours at 37° C.; read-out: Jurkat HPD1-PDL1 IC50
Positions of bridges follow the written chain, without caps; N, C: chain ends. Non-standard residues stand in square brackets, D forms with d. Residues, ends and D or L forms follow the SMILES beside them. Bip = N[C@@H](Cc1ccc(-c2ccccc2)cc1)C(=O)O; hSer = N[C@@H](CCO)C(=O)O; NMeA = CN[C@@H](C)C(=O)O; Sar = CNCC(=O)O
reportedMetric: pIC50
To interpret pIC50, take it as minus log10 of a concentration measured in moles per litre.

Problem: Quick one: give measured pIC50 for CC(C)C[C@@H]1NC(=O)[C@H](Cc2c[nH]c3ccccc23)NC(=O)[C@H](CC(=O)O)NC(=O)[C@H](Cc2ccc(O)cc2)NC(=O)[C@H](Cc2ccccc2)NC(=O)CSC[C@@H](C(=O)N[C@@H](C)C(N)=O)NC(=O)[C@H](CCO)NC(=O)[C@H](C(C)C)NC(=O)[C@H](CC(C)C)NC(=O)[C@H](CC(N)=O)NC(=O)CN(C)C(=O)[C@H](C)N(C)C(=O)[C@H](C(C)C)NC(=O)[C@H](Cc2ccc(-c3ccccc3)cc2)NC1=O [Example 1159] ({CH2CO}-FYDWL[Bip]V[NMeA][Sar]NLV[hSer]CA-NH2; thioether N-14)
Solution: 6.07
